Biological target: Phospho VEGFR3 (Flt4) in HMVEC-dLyAD cells (Homo sapiens, UniProt P35916)
Sequence (P35916 25-1363): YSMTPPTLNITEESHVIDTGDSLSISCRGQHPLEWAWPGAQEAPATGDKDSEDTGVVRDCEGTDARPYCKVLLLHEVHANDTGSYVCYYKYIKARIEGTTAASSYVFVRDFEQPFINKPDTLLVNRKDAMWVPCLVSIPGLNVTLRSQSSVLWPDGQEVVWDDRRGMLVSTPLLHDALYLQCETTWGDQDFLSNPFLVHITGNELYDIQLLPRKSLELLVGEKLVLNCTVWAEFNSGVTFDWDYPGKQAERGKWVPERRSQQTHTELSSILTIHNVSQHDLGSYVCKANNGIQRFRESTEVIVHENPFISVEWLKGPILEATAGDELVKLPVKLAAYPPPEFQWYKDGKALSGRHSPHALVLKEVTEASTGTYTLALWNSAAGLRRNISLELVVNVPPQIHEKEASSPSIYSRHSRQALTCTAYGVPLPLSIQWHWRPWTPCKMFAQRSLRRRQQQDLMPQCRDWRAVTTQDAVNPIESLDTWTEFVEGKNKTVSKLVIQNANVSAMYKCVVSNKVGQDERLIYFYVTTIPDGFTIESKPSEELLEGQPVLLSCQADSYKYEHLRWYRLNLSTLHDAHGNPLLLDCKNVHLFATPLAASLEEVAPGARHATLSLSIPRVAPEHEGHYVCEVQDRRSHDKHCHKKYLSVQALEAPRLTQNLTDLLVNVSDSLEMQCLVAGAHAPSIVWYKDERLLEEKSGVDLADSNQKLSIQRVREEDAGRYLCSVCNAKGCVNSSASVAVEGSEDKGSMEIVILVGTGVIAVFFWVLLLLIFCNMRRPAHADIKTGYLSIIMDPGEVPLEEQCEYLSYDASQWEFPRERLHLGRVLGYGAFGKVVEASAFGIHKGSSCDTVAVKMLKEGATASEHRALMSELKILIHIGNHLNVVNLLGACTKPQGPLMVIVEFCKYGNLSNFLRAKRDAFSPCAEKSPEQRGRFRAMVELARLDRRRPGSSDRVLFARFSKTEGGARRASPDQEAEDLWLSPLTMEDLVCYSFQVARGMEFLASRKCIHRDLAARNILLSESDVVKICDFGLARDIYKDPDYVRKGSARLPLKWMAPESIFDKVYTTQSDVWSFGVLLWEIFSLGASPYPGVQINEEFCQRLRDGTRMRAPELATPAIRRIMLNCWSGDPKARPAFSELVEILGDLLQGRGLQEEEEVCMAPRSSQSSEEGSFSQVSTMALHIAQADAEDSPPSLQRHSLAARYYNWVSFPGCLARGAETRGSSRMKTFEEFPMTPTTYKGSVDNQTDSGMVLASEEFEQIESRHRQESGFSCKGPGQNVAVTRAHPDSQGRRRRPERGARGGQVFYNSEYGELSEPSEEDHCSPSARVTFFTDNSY
Assay: Flt4 Phospho ELISA assay
MEASURED_PARAMETER: pIC50
Scale: negative log10 of molar concentration, which is what pIC50 denotes.

{"MOLECULE_SMILES": "CN1CCN(Cc2ccc(Nc3ncc(C(F)(F)F)c(CCc4ccccc4CC(N)=O)n3)cc2)CC1", "MEASURED_PARAMETER": "pIC50", "ASSAY_VALUE": 6.77}

# value lookup — system Phospho VEGFR3 (Flt4) in HMVEC-dLyAD cells (Homo sapiens, UniProt P35916), readout pIC50, item CN1CCN(c2cccc(Nc3ncc(C(F)(F)F)c(CCc4ccccc4CC(N)=O)n3)c2)CC1 7.36

====

Read-out record for N-terminally GST-fused purified FAK enzyme (Homo sapiens, UniProt Q05397): log10 of Kd
Hey, these are logged values: log10 of Kd, nM being the unit before logging.

Answered examples (7):
{"COMPOUND": "CN1CCN(c2cccc(Nc3ncc(C(F)(F)F)c(CCc4cccc(C(N)=O)c4)n3)c2)CC1", "ASSAY_VALUE": 0.80}
{"COMPOUND": "CNC(=O)Cc1ccccc1CCc1nc(Nc2cccc(N3CCN(C)CC3)c2)ncc1C(F)(F)F", "ASSAY_VALUE": 1.11}
{"COMPOUND": "CC(C(N)=O)c1ccccc1CCc1nc(Nc2ccc(C3CCNCC3)cc2)ncc1C(F)(F)F (centres unmarked)", "ASSAY_VALUE": -0.04}
{"COMPOUND": "CN1CCN(c2ccc(Nc3ncc(C(F)(F)F)c(CCc4cccc(C(N)=O)c4)n3)cc2)CC1", "ASSAY_VALUE": 0.18}
{"COMPOUND": "NC(=O)Cc1ccccc1CCc1nc(Nc2ccc(C3CCCCN3)cc2)ncc1C(F)(F)F (centres unmarked)", "ASSAY_VALUE": 0.00}
{"COMPOUND": "CN1CCN(Cc2ccc(Nc3ncc(C(F)(F)F)c(CCc4ccccc4CC(N)=O)n3)cc2)CC1", "ASSAY_VALUE": -0.32}
{"COMPOUND": "NC(=O)Cc1ccccc1CCc1nc(Nc2ccc3c(c2)CCNC3)ncc1C(F)(F)F", "ASSAY_VALUE": -0.36}

# value lookup — system N-terminally GST-fused purified FAK enzyme (Homo sapiens, UniProt Q05397), readout log10 of Kd, item CCN1CCC(c2ccc(Nc3ncc(C(F)(F)F)c(CCc4ccccc4CC(N)=O)n3)cc2)CC1 0.00

====

Target: VEGFR3 cytoplasmic domain (Homo sapiens)
Sequence (P35916 other isoform, or with tags, fused parts or gaps): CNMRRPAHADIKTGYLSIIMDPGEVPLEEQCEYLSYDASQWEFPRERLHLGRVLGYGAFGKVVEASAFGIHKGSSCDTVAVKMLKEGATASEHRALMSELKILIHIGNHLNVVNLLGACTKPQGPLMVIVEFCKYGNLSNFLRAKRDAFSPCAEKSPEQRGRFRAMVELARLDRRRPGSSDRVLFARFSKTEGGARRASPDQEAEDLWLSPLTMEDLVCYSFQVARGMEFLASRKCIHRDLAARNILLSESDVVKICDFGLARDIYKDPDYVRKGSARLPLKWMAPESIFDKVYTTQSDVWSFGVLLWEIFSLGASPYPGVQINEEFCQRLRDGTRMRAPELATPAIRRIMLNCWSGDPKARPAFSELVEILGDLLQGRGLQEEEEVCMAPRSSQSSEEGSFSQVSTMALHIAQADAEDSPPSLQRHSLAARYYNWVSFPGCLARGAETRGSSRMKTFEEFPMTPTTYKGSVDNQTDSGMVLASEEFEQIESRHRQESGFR
Assay: biochemical
pIC50: −log10 of the molar value.
Use satisfied when the recorded pIC50 is no lower than 7; use not satisfied when it is lower.

These recorded examples may help you get a feel for the data.
{"COMPOUND": "CN1CCN(c2cccc(Nc3ncc(C(F)(F)F)c(CCc4ccccc4CC(N)=O)n3)c2)CC1 [Compound 17]", "GROUP": "satisfied"}
{"COMPOUND": "CNC(=O)Cc1ccccc1CCc1nc(Nc2cccc(N3CCN(C)CC3)c2)ncc1C(F)(F)F [Compound 18]", "GROUP": "not satisfied"}
{"COMPOUND": "Cc1ccc(CCc2nc(Nc3ccc(N4CCNCC4)cc3)ncc2C(F)(F)F)cc1C(N)=O [Compound 19]", "GROUP": "satisfied"}
{"COMPOUND": "CN1CCN(Cc2ccc(Nc3ncc(C(F)(F)F)c(CCc4ccccc4CC(N)=O)n3)cc2)CC1 [Compound 36]", "GROUP": "satisfied"}
{"COMPOUND": "NC(=O)c1cccc(CCc2nc(Nc3ccc(CN4CCNCC4)cc3)ncc2C(F)(F)F)c1 [Compound 37]", "GROUP": "not satisfied"}

Consider now this further compound.
# check: pIC50 of CN1CCN(c2cccc(Nc3ncc(C(F)(F)F)c(CCc4cccc(C(N)=O)c4)n3)c2)CC1 [Compound 6] is greater than or equal to 7 satisfied

====

Read-out record for FAK enzyme (catalytic domain, amino acids 411-686) (Homo sapiens, UniProt Q05397): pIC50
Scale: negative log10 of molar concentration, which is what pIC50 denotes.

{"COMPOUND": "CNC(=O)Cc1ccccc1CCc1nc(Nc2cccc(N3CCN(C)CC3)c2)ncc1C(F)(F)F [Compound 18]", "STUDY_TARGET": "FAK enzyme (catalytic domain, amino acids 411-686) (Homo sapiens, UniProt Q05397)", "ASSAY_VALUE": 7.89}

With those in mind, consider the next compound.
Give the measured pIC50 of CN1CCN(c2ccc(Nc3ncc(C(F)(F)F)c(CCc4ccccc4CC(N)=O)n3)cc2)CC1 [Compound 3] . 8.72

====

Read-out record for FAK enzyme (catalytic domain, amino acids 411-686) (Homo sapiens): IC50
Answer with a number only, understood to be in nM.

Give the measured IC50 of NC(=O)Cc1ccccc1CCc1nc(Nc2ccc(N3CCC(N)CC3)cc2)ncc1C(F)(F)F . 0.81

Same lookup for NC(=O)Cc1cncnc1CCc1nc(Nc2ccc(C3CCNCC3)cc2)ncc1C(F)(F)F , please. 11

Same lookup for NC(=O)Cc1ccccc1CCc1nc(Nc2ccc(C3CNCCO3)cc2)ncc1C(F)(F)F (stereo not drawn) , please. 2.8

Same lookup for O=C1NCc2cccc(CCc3nc(Nc4ccc(N5CCNCC5)cc4)ncc3C(F)(F)F)c21 , please. 18

Same lookup for CN1CCN(c2cccc(Nc3ncc(C(F)(F)F)c(CCc4cccc(C(N)=O)c4)n3)c2)CC1 , please. 4.2

Same lookup for NC(=O)Cc1ccccc1CCc1nc(Nc2ccc3c(c2)CCNC3)ncc1C(F)(F)F , please. 2.4

====

Molecular target: N-terminally GST-fused purified FAK enzyme (Homo sapiens, UniProt Q05397)
Sequence (Q05397 whole entry, the tested form may be a part): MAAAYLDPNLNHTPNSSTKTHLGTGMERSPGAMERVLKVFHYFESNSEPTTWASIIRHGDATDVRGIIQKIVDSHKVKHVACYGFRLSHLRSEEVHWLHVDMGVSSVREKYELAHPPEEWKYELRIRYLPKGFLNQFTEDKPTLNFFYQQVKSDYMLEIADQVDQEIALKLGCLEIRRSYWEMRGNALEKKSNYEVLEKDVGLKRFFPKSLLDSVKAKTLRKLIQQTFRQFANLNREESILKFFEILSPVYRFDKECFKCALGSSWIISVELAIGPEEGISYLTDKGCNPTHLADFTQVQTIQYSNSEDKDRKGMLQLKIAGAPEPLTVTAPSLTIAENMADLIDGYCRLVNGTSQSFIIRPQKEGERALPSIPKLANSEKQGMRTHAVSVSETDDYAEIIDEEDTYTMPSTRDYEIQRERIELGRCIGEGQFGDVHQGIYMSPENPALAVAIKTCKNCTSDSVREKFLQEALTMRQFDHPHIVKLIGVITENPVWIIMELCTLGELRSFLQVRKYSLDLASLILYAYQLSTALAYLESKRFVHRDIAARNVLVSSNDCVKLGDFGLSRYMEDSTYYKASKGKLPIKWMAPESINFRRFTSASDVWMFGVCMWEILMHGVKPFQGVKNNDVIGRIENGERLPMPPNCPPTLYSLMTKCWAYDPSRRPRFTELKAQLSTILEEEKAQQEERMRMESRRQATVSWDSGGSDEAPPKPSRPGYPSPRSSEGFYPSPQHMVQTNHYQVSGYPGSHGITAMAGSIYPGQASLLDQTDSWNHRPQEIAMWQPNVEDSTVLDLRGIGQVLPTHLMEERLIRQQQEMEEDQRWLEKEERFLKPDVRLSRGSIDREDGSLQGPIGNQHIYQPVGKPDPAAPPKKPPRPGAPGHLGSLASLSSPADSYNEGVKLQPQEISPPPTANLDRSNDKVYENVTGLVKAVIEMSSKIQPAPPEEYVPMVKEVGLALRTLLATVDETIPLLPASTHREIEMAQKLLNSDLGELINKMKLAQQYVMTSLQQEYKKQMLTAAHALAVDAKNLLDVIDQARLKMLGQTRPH
Each entry below lists one item and its recorded pKd value.
Scale: negative log10 of molar concentration, which is what pKd denotes.

Give the measured pKd of NC(=O)Cc1ccccc1CCc1nc(Nc2ccc(C3CCCNC3)cc2)ncc1C(F)(F)F (stereo not shown) [Compound 4] . 9.14

Same lookup for O=C1NCc2cccc(CCc3nc(Nc4ccc(N5CCNCC5)cc4)ncc3C(F)(F)F)c21 [Compound 15] , please. 8.30

====

Read-out record for FAK enzyme (catalytic domain, amino acids 411-686) (Homo sapiens): IC50
Answer with a number only, understood to be in nM.

Answered examples (5):
{"COMPOUND": "Cc1ccc(CCc2nc(Nc3ccc(N4CCNCC4)cc3)ncc2C(F)(F)F)cc1C(N)=O", "ASSAY_VALUE": 7.7}
{"COMPOUND": "NC(=O)Cc1nccnc1CCc1nc(Nc2ccc(C3CCNCC3)cc2)ncc1C(F)(F)F", "ASSAY_VALUE": 20}
{"COMPOUND": "CN1CCN(c2cccc(Nc3ncc(C(F)(F)F)c(CCc4ccccc4CC(N)=O)n3)c2)CC1", "ASSAY_VALUE": 3.4}
{"COMPOUND": "NC(=O)Cc1ccccc1CCc1nc(Nc2ccc(N3CCNCC3)cc2)ncc1C(F)(F)F", "ASSAY_VALUE": 2.1}
{"COMPOUND": "CC(C(N)=O)c1ccccc1CCc1nc(Nc2ccc(C3CCNCC3)cc2)ncc1C(F)(F)F (centres unmarked)", "ASSAY_VALUE": 6.3}

Give the measured IC50 of CN1CCN(Cc2ccc(Nc3ncc(C(F)(F)F)c(CCc4ccccc4CC(N)=O)n3)cc2)CC1 . 2.3

Same lookup for CN1CCCCC1c1ccc(Nc2ncc(C(F)(F)F)c(CCc3ccccc3CC(N)=O)n2)cc1 (centres unmarked) , please. 7

Same lookup for NC(=O)Cc1ccccc1CCc1nc(Nc2ccc(C3CCCCN3)cc2)ncc1C(F)(F)F (centres unmarked) , please. 6.1

Same lookup for CNC(=O)Cc1ccccc1CCc1nc(Nc2ccc(N3CCNCC3)cc2)ncc1C(F)(F)F , please. 21

Same lookup for CN1CCN(c2ccc(Nc3ncc(C(F)(F)F)c(CCc4cccc(C(N)=O)c4)n3)cc2)CC1 , please. 2.5

Same lookup for NC(=O)Cc1ccccc1CCc1nc(Nc2ccc(C3CCCNC3)cc2)ncc1C(F)(F)F (centres unmarked) , please. 1.5

Same lookup for CN1CCC(c2ccc(Nc3ncc(C(F)(F)F)c(CCc4cc(C(N)=O)ccn4)n3)cc2)CC1 , please. 5.7

Same lookup for NC(=O)Cc1ccccc1CCc1nc(Nc2ccc(C3CCNCC3)cc2)ncc1C(F)(F)F , please. 3

Same lookup for NC(=O)c1cccc(CCc2nc(Nc3ccc(CN4CCNCC4)cc3)ncc2C(F)(F)F)c1 , please. 15

====

Target: UniProtKB Q05397
pKd: −log10 of the molar value.
Use Met when the recorded pKd is no lower than 9; use Not met when it is lower.

{"COMPOUND": "Cc1ccc(CCc2nc(Nc3ccc(N4CCNCC4)cc3)ncc2C(F)(F)F)cc1C(N)=O [Compound 19]", "GROUP": "Not met"}
{"COMPOUND": "NC(=O)Cc1ccccc1CCc1nc(Nc2ccc(N3CCNCC3)cc2)ncc1C(F)(F)F [Compound 1]", "GROUP": "Met"}
{"COMPOUND": "CN1CCC(c2ccc(Nc3ncc(C(F)(F)F)c(CCc4cc(C(N)=O)ccn4)n3)cc2)CC1 [Compound 34]", "GROUP": "Not met"}
{"COMPOUND": "CNC(=O)Cc1ccccc1CCc1nc(Nc2ccc(N3CCNCC3)cc2)ncc1C(F)(F)F [Compound 14]", "GROUP": "Not met"}

Consider now this further compound.
# check: pKd of CN1CCN(c2cccc(Nc3ncc(C(F)(F)F)c(CCc4ccccc4CC(N)=O)n3)c2)CC1 [Compound 17] is greater than or equal to 9 Not met
